- Species: Rattus norvegicus
- experimental.details: Open TG-GATES - Regimen: Single
- Assay type: toxicity, organism-based, Sprague-Dawley
- Design: regimen Single, gender Male, age 6 weeks
- particulars: in vivo, po, 0 mg/kg, 6 h, tissue Blood, route gavage, dose level Control
measurement.type: MCH (pg)
The figure you give is taken to be in pg; do not add the unit.

Task item: For O=C(CCCN1CCC(O)(c2ccc(Cl)cc2)CC1)c1ccc(F)cc1 [HALOPERIDOL] , what is its reported MCH?
Reply: 21.7

----------
# MCV annotations
- Species on record: Rattus norvegicus
- experimental.details: Open TG-GATES - Regimen: Single
- Assay type: toxicity, organism-based, Sprague-Dawley
- Set-up: regimen Single, gender Male, age 6 weeks
- particulars: in vivo, po, 30 mg/kg, 24 h, tissue Blood, route gavage, dose level Middle
The figure you give is taken to be in fL; do not add the unit.

Study these solved cases before continuing.
{"compound": "CN(C)CCCN1c2ccccc2CCc2ccccc21 [IMIPRAMINE]", "value.units": "fL", "MCV": 64.6}
{"compound": "CN(C)CCN(Cc1cccs1)c1ccccn1", "value.units": "fL", "MCV": 62.1}
{"compound": "CN(C)CCCN1c2ccccc2CCc2ccc(Cl)cc21 [CLOMIPRAMINE]", "value.units": "fL", "MCV": 63.9}

Task item: For CC1=C(/C=C/C(C)=C/C=C/C(C)=C/CO)C(C)(C)CCC1 [RETINOL] , what is its reported MCV?
Reply: 63.1
